Where these numbers come from: patent US4532255A

Biological target: C1r (Homo sapiens, UniProt P00736)
Sequence (P00736 464-705 limits assumed): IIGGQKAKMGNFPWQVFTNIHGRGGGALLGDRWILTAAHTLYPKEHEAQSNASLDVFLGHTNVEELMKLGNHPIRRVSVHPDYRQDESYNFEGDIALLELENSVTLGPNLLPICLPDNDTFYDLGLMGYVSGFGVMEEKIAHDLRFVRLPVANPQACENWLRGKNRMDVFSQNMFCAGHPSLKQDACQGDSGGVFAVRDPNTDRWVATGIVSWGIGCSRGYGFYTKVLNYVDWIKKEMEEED
Sequence (P00736 18-463 partner limits assumed): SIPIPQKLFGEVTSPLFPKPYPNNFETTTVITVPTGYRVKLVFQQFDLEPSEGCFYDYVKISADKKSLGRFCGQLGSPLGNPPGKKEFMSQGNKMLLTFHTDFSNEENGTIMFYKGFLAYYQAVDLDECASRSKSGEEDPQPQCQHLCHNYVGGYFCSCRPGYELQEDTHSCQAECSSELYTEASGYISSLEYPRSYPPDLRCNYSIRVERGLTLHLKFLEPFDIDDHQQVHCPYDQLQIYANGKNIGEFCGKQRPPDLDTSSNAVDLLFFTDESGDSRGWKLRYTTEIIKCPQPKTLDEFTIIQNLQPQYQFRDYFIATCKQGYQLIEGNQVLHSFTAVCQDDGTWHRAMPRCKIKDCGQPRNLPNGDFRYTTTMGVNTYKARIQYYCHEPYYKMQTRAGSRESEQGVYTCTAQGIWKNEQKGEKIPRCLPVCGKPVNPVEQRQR
Please provide measured pIC50 for the entries that follow.
Remember, pIC50 is on a log scale: it is -log10 of the molar concentration.

Return pIC50 measured with C1r (Homo sapiens, UniProt P00736) given this compound: N=C(N)c1ccc2cc(OC(=O)c3ccc([N+](=O)[O-])cc3)ccc2c1 [Compound 18, 6-amidino-2-naphthyl 4-nitrobenzoate]
5.40

What measured pIC50 is associated with CN(C(=N)N)c1ccc(C(=O)Oc2ccc3cc(C(=N)N)ccc3c2)cc1 [Compound 28] on C1r (Homo sapiens, UniProt P00736)?
5.52

Lab note: need pIC50 for N=C(N)c1ccc2cc(OC(=O)c3ccc(N)cc3)ccc2c1 [Compound 20, 6-amidino-2-naphthyl 4-aminobenzoate] on C1r (Homo sapiens, UniProt P00736), anyone have it?
6.70

Report pIC50 for Cc1cccc(C(=O)Oc2ccc3cc(C(=N)N)ccc3c2)c1 [Compound 3, 6-amidino-2-naphthyl 3-methylbenzoate] tested on C1r (Homo sapiens, UniProt P00736).
6.00

Param readout = pIC50; param system = C1r (Homo sapiens, UniProt P00736); param query = N=C(N)c1ccc2cc(OC(=O)c3ccc(CNC(=O)OCc4ccccc4)cc3)ccc2c1 [Compound 21] ; response: value
6.15

---

For each entry below, report its pIC50 value.
System: Kallikrein
Assay: Anti-kallikrein activity (hydrolysis of TAME)
Type: biochemical
Settings: molar concentration inhibiting 50% of TAME hydrolysis; read-out: Kallikrein ID50
pIC50: −log10 of the molar value.

Record request: pIC50 value, item CC(=O)Oc1ccccc1C(=O)Oc1ccc2cc(C(=N)N)ccc2c1
< 5.00

Form field: reported pIC50 of Cc1ccc(CCC(=O)Oc2ccc3cc(C(=N)N)ccc3c2)cc1
< 5.00

Request the reported pIC50 associated with N=C(N)c1ccc2cc(O)ccc2c1 [6-amidino-2-naphthol, reference compound]
< 3.00

Entry under review: N=C(N)c1ccc2cc(OC(=O)c3ccc(C=O)cc3)ccc2c1 . Reported pIC50?
< 5.00

Look up pIC50: N=C(N)c1ccc2cc(OC(=O)C=Cc3ccc([N+](=O)[O-])cc3)ccc2c1 [Compound 62, 6-amidino-2-naphthyl 4-nitrocinnamate]
< 5.00

pIC50 for N=C(N)c1ccc2cc(OC(=O)C=Cc3cccc(C(F)(F)F)c3)ccc2c1 ?
< 5.00

Could you share which pIC50 value was measured for COc1ccccc1OCC(=O)Oc1ccc2cc(C(=N)N)ccc2c1 ?
< 5.00

Could you tell me which pIC50 is on file for N=C(N)Nc1ccc(CCC(=O)Oc2ccc3cc(C(=N)N)ccc3c2)cc1 ?
< 5.00

Given the entry N=C(N)c1ccc2cc(OC(=O)c3ccc([N+](=O)[O-])cc3)ccc2c1 [Compound 18, 6-amidino-2-naphthyl 4-nitrobenzoate] , report its measured pIC50.
< 5.00

// pIC50 lookup, key: Cc1ccccc1C(=O)Oc1ccc2cc(C(=N)N)ccc2c1 [Compound 2, 6-amidino-2-naphthyl 2-methylbenzoate]
< 5.00

# input molecule: Cc1ccc(C=CC(=O)Oc2ccc3cc(C(=N)N)ccc3c2)cc1 ; wanted: its pIC50
< 5.00
